These data points were gathered from ChEMBL document CHEMBL1201862.

- tested-target: Corticotropin-releasing factor receptor 2/Corticotropin-releasing factor-binding protein (Homo sapiens, UniProt P24387+Q13324)
- Sequence (Q13324 whole entry): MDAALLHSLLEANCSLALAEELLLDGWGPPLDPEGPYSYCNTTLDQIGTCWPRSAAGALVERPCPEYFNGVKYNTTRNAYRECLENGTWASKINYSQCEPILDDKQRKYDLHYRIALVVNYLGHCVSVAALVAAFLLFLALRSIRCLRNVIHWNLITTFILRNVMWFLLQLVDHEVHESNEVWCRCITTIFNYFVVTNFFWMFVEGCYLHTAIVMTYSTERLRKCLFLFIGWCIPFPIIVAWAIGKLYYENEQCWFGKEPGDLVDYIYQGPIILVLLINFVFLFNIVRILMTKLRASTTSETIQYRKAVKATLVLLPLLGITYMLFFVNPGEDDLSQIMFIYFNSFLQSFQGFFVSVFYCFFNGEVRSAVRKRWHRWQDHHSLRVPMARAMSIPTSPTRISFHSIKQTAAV
- Sequence (P24387 whole entry): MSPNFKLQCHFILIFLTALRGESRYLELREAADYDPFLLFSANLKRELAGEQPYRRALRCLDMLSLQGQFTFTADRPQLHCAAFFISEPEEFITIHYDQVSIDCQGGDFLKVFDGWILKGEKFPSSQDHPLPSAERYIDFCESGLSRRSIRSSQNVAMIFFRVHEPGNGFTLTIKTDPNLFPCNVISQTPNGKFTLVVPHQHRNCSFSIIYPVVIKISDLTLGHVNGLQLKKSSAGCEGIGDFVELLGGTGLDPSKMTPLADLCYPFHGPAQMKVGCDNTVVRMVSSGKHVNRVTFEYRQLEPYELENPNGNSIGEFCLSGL
- assay-comment: Dose Response confirmation of uHTS hits for small molecule antagonists of the CRF-binding protein and CRF-R2 receptor complex.
- Assay type: functional
- reported-conditions: read-out: IC50_Mean
Active and inactive are the calls of the source. No stated cut-off is given here; in the data, actives have a measured IC50 and inactives only a lower limit.
Please reply with one of these outcomes: active, inactive

1. Cc1c2cnn(CC(=O)NC3CCCC3)c(=O)c2c(C)n1Cc1ccccc1 :: inactive

Request: Test call for this molecule, please: Cn1c(C(=O)NCCc2ccccc2)cc(=O)n(C)c1=O
Result: inactive

Request: What did the test return for Cc1cc(O)c(C2(O)C(=O)Nc3cc(Br)ccc32)cc1C (stereo unspecified) ?
Result: inactive

Request: Returns: the outcome recorded for Cc1ccc(N2C(=O)c3sc4nnc(C)c(=O)n4c3C2=O)cc1 in this assay.
Result: inactive

Request: Please let me know the test result on file for Cc1ccc(C)c(S(=O)(=O)C(C#N)c2nc3ccccc3nc2N2CCOCC2)c1 (stereo unspecified) .
Result: active

Request: Hi, sorry to bother you, what did the test record for COc1ccc(-n2ncc(C(C)NS(=O)(=O)c3cc(C)sc3C)c2C)cc1 (stereo unspecified) ?
Result: inactive
